# target: COX-1 (Ovis aries, UniProt P05979)
# Construct: purchased Cayman Chemical Co
# Sequence (P05979 25-600): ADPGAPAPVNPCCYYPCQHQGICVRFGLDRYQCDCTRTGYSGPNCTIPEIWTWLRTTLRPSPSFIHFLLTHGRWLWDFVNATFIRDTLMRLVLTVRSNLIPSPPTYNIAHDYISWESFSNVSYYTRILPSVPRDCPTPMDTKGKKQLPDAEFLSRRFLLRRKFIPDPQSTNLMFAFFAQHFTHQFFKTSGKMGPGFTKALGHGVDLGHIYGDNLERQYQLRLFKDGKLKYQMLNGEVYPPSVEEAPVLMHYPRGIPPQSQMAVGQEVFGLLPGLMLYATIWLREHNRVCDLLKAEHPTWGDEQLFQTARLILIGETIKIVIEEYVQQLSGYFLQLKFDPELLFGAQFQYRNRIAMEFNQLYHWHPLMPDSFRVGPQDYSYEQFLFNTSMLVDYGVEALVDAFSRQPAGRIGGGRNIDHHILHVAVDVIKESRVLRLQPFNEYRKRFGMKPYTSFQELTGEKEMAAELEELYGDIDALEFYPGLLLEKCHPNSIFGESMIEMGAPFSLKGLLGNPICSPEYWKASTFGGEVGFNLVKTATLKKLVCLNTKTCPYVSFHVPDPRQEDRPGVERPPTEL
# experiment.summary: Inhibitory Activity on COX-1 (Assay Example 5)
# Assay type: biochemical
# study.conditions: Table 4; read-out: COX Inhibiting Activity IC50, COX-1
pIC50: −log10 of the molar value.
observable: pIC50

The cases that follow already have their pIC50 on record.
NS(=O)(=O)c1ccc(-n2nc(C(F)F)cc2-c2nc3ccc(F)cc3s2)cc1 [Example 23]: < 4.00
Cc1ccc2nc(-c3cc(C(F)F)nn3-c3ccc(S(C)(=O)=O)cc3)sc2c1 [Example 26]: < 4.00
NS(=O)(=O)c1ccc(-n2nc(C(F)F)cc2-c2nc3ccccc3s2)cc1 [Example 21]: 4.66

For the compound NS(=O)(=O)c1ccc(-n2nc(C(F)(F)F)cc2-c2nc3ccccc3s2)cc1 [Example 14] , the measured pIC50 on COX-1 (Ovis aries, UniProt P05979) was < 4.00

For the compound Cc1ccc2nc(-c3cc(C(F)(F)C(F)(F)F)nn3-c3ccc(S(N)(=O)=O)cc3)sc2c1 [Example 33] , the measured pIC50 on COX-1 (Ovis aries, UniProt P05979) was < 4.00

For the compound NS(=O)(=O)c1ccc(-n2nc(C(F)F)cc2-c2nc3c(F)cccc3s2)cc1 [Example 41] , the measured pIC50 on COX-1 (Ovis aries, UniProt P05979) was < 4.00

For the compound CS(=O)(=O)c1ccc(-n2nc(C(F)F)cc2-c2nc3cccc(F)c3s2)cc1 [Example 28] , the measured pIC50 on COX-1 (Ovis aries, UniProt P05979) was < 4.00

For the compound Cc1ccc2nc(-c3cc(C(F)F)nn3-c3ccc(S(N)(=O)=O)cc3)sc2c1 [Example 27] , the measured pIC50 on COX-1 (Ovis aries, UniProt P05979) was 4.48

----------
# target: COX-2 (Ovis aries)
# Construct: purchased Cayman Chemical Co
# experiment.summary: Inhibitory Activity on COX-2 (Assay Example 1)
# Format: biochemical
# study.conditions: Table 1
observable: COX-1/COX-2 (ratio of IC50 values)

NS(=O)(=O)c1ccc(-n2nc(C(F)(F)F)cc2-c2nc3ccc(F)cc3s2)cc1: 142
CS(=O)(=O)c1ccc(-n2nc(C(F)(F)F)cc2-c2nc3ccccc3s2)cc1: > 294
CS(=O)(=O)c1ccc(-n2nc(C(F)(F)F)cc2-c2nc3c(F)cccc3s2)cc1: > 23.3
COc1ccc2nc(-c3cc(C(F)(F)F)nn3-c3ccc(S(N)(=O)=O)cc3)sc2c1: > 208

# COX-1/COX-2 (ratio of IC50 values) (molecule: CS(=O)(=O)c1ccc(-n2nc(C(F)(F)F)cc2-c2nc3ccc(Cl)cc3s2)cc1 ) is > 185

# COX-1/COX-2 (ratio of IC50 values) (molecule: CS(=O)(=O)c1ccc(-n2nc(C(F)(F)F)cc2-c2nc3ccc(F)cc3s2)cc1 ) is > 263

----------
# Test system: rat adjuvant-induced arthritis
# experiment.summary: Inhibitory Action on Adjuvant Arthritis (1) (Assay Example 2)
# Assay type: in vivo, male Fisher rats
# study.conditions: oral 5 mg/kg, days 0, 3, 7, 10, 14, 17, 20; scored day 21
observable: Inflammation Score Inhibition (%)
Give just the number in %; leave the unit off.

The cases that follow already have their Inflammation Score Inhibition (%) on record.
CS(=O)(=O)c1ccc(-n2nc(C(F)(F)F)cc2-c2nc3c(F)cccc3s2)cc1: 97
COc1ccc2c(c1)c(CC(=O)O)c(C)n2C(=O)c1ccc(Cl)cc1 [Indomethacin, reference compound]: 51
CS(=O)(=O)c1ccc(-n2nc(C(F)(F)F)cc2-c2nc3cc(F)ccc3s2)cc1: 100
CS(=O)(=O)c1ccc(-n2nc(C(F)(F)F)cc2-c2ccc(F)cc2)cc1 [SC-58125, reference compound]: 96
NS(=O)(=O)c1ccc(-n2nc(C(F)(F)F)cc2-c2nc3ccc(F)cc3s2)cc1: 78

# Inflammation Score Inhibition (%) (compound: CS(=O)(=O)c1ccc(-n2nc(C(F)(F)F)cc2-c2nc3ccc(F)cc3s2)cc1 ) is 97

# Inflammation Score Inhibition (%) (compound: Cc1ccc(-c2cc(C(F)(F)F)nn2-c2ccc(S(N)(=O)=O)cc2)cc1 [YM-177, reference compound] ) is 44

----------
# target: COX-2 (Ovis aries)
# Construct: purchased Cayman Chemical Co
# experiment.summary: Inhibitory Activity on COX-2 (Assay Example 1)
# Assay type: biochemical
# study.conditions: Table 1; read-out: COX Inhibiting Activity IC50, COX-2
pIC50: −log10 of the molar value.
observable: pIC50

NS(=O)(=O)c1ccc(-n2nc(C(F)(F)F)cc2-c2nc3ccc(F)cc3s2)cc1: 6.48
CS(=O)(=O)c1ccc(-n2nc(C(F)(F)F)cc2-c2nc3ccc(Cl)cc3s2)cc1: 6.27
CS(=O)(=O)c1ccc(-n2nc(C(F)(F)F)cc2-c2nc3ccccc3s2)cc1: 6.47
CS(=O)(=O)c1ccc(-n2nc(C(F)(F)F)cc2-c2nc3ccc(F)cc3s2)cc1: 6.42

[P] CS(=O)(=O)c1ccc(-n2nc(C(F)(F)F)cc2-c2nc3c(F)cccc3s2)cc1
[Q] COc1ccc2nc(-c3cc(C(F)(F)F)nn3-c3ccc(S(N)(=O)=O)cc3)sc2c1
Ask: Compare P and Q by numeric pIC50 and name the larger one. Provide the label of your selected option as the answer.
Reply: Q

----------
# target: COX-2 (Ovis aries, UniProt P79208)
# Construct: purchased Cayman Chemical Co
# Sequence (P79208 17-603): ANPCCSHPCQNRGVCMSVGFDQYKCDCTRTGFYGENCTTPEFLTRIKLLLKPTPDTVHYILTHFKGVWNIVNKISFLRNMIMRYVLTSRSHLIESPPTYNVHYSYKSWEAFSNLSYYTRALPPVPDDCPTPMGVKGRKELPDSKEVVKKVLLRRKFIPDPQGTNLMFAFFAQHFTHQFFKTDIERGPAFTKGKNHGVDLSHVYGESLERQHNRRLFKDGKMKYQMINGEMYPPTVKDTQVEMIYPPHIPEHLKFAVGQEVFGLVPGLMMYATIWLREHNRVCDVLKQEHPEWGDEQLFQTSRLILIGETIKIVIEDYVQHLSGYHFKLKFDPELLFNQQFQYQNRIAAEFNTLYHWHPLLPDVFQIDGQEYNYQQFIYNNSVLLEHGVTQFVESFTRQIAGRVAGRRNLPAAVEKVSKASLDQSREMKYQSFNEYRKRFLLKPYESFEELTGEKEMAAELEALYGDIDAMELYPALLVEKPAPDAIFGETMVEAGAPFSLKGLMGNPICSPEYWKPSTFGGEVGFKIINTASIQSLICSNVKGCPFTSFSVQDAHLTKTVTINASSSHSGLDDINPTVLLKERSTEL
# experiment.summary: Inhibitory Activity on COX-2 (Assay Example 5)
# Format: biochemical
# study.conditions: Table 4; read-out: COX Inhibiting Activity IC50, COX-2
observable: IC50 (nM)

The cases that follow already have their IC50 on record.
CS(=O)(=O)c1ccc(-n2nc(C(F)F)cc2-c2nc3ccc(F)cc3s2)cc1: 50
Cc1ccc2nc(-c3cc(C(F)F)nn3-c3ccc(S(C)(=O)=O)cc3)sc2c1: 130
NS(=O)(=O)c1ccc(-n2nc(C(F)F)cc2-c2nc3ccccc3s2)cc1: 57

[a] CS(=O)(=O)c1ccc(-n2nc(C(F)F)cc2-c2nc3cccc(F)c3s2)cc1
[b] Cc1ccc2nc(-c3cc(C(F)F)nn3-c3ccc(S(N)(=O)=O)cc3)sc2c1
[c] COc1ccc2nc(-c3cc(C(F)F)nn3-c3ccc(S(N)(=O)=O)cc3)sc2c1
[d] CS(=O)(=O)c1ccc(-n2nc(C(F)(F)F)cc2-c2nc3cccc(F)c3s2)cc1
Ask: hey, can you rank those compounds up there by IC50? biggest number first please Answer by writing out the labels in the requested order.
Reply: c, d, a, b

[a] NS(=O)(=O)c1ccc(-n2nc(C(F)F)cc2-c2nc3ccc(F)cc3s2)cc1
[b] NS(=O)(=O)c1ccc(-n2nc(C(F)(F)F)cc2-c2nc3ccccc3s2)cc1
Ask: Hi! Which is lower in terms of IC50, the first one a or the second one b ? Provide the label of your selected option as the answer.
Reply: b
(b: 56 nM, a: 110 nM)

----------
# target: COX-1 (Ovis aries, UniProt P05979)
# Construct: purchased Cayman Chemical Co
# experiment.summary: Inhibitory Activity on COX-1 (Assay Example 1)
# Assay type: biochemical
# study.conditions: Table 1; read-out: COX Inhibiting Activity IC50, COX-1
pIC50: −log10 of the molar value.
observable: pIC50

CS(=O)(=O)c1ccc(-n2nc(C(F)(F)F)cc2-c2nc3ccccc3s2)cc1: < 4.00
COc1ccc2nc(-c3cc(C(F)(F)F)nn3-c3ccc(S(N)(=O)=O)cc3)sc2c1: < 4.00
CS(=O)(=O)c1ccc(-n2nc(C(F)(F)F)cc2-c2nc3c(F)cccc3s2)cc1: < 4.00
NS(=O)(=O)c1ccc(-n2nc(C(F)(F)F)cc2-c2nc3ccc(F)cc3s2)cc1: 4.33
CS(=O)(=O)c1ccc(-n2nc(C(F)(F)F)cc2-c2nc3ccc(F)cc3s2)cc1: < 4.00

Below: the item to evaluate.
# pIC50 (compound: CS(=O)(=O)c1ccc(-n2nc(C(F)(F)F)cc2-c2nc3ccc(Cl)cc3s2)cc1 ) is < 4.00
